- Subject of test: Heat shock protein HSP 90-alpha (Homo sapiens)
- Format: functional, organism-based
The source made the active and inactive calls.
Observable: AC50

Worked examples follow.
CCOC(=O)/C=C/C(=O)Nc1cccc([N+](=O)[O-])c1    3.97 µM (active)
O=C1NC(=S)S/C1=C\C=C\c1ccc([N+](=O)[O-])o1    1.73 µM (active)

Problem: What measured AC50 goes with COC(=O)c1ccc(N2C(=O)CC(N(C)Cc3ccccc3)C2=O)cc1 (stereo not drawn) ?
Solution: 7.7 µM (active)

---

Entries and their EC50
- Test method notes: Luminescence Cell-Based Dose Confirmation HTS to Identify Activators of 5'UTR Stem-Loop Driven Alpha-Synuclein mRNA Translation in H4 Neuroglioblastoma Cells. [Related pubchem assays: 1829 (Project Summary), 1814 (Primary HTS)]
- Assay type: functional
Activity calls are given as the source filed them.

Worked examples follow.
O=C(c1cnn2c1NC(c1ccco1)CC2C(F)(F)F)N1CCN(c2cccc(Cl)c2)CC1 (stereo unspecified)    > 120 µM (not active)
Cc1cc(C(c2nnnn2Cc2ccccc2)N2CCOCC2)c(C)n1-c1ccc2c(c1)OCO2 (stereo unspecified)    91.8 µM (active)

Problem: What measured EC50 goes with "COc1ccc(/C=C2\SC(=O)N(CCNC(=O)C3CCN(S(=O)(=O)c4cccs4)CC3)C2=O)cc1" ?
Solution: 10.2 µM (active)

Problem: Can you handle "Cc1cccc(-n2cnc3cc(C(=O)N4CCCCC4)ccc32)c1" next?
Solution: 17.9 µM (active)

Problem: Can you handle N#C/C(=C\C1CC=CCC1)c1nc2ccccc2[nH]1 (stereo unspecified) next?
Solution: 21.9 µM (active)

Problem: Can you handle "CCn1cc(Br)c(-c2nc3ccccc3c(=O)n2N)n1" next?
Solution: 102 µM (active)

---

- Tested on: P388/ADR
- Test method notes: cells
- Assay type: functional
- Settings: Mus musculus, P388/ADR
Active and inactive are the calls of the source.
Can you answer with just one of these options? active, inactive

CCCCCCCCCOCC(COP(=O)([O-])OCC[N+](C)(C)C)OC (centres undefined)    inactive
Nc1ccn(C2CCC(CO)O2)c(=O)n1 (centres undefined)    inactive
CC[C@]1(O)C[C@H]2CN(CCc3c([nH]c4ccccc34)[C@@](C(=O)OC)(c3cc4c(cc3OC)N(C)[C@H]3[C@@](O)(C(=O)OC)[C@H](OC(C)=O)[C@]5(CC)C=CCN6CC[C@]43[C@@H]65)C2)C1    active

Turning to the following molecule.
Problem: # lookup: test call for "CCOC(=O)NC(=O)c1cn(CCN(CCO)C(=O)NCCCCCCNC(=O)N(CCO)CCn2cc(C(=O)NC(=O)OCC)c(=O)[nH]c2=O)c(=O)[nH]c1=O"
Solution: inactive

---

For Cytochrome P450 1A2 (Homo sapiens, UniProt P05177), measured AC50 is reported for the entries below.

Worked examples follow.
O=C(O)CCC/C=C\C[C@@H]1CO[C@H](C(F)(F)F)O[C@@H]1c1ccccc1O    39.8 µM (inconclusive)
Cc1cc(C)c(S(=O)(=O)Nc2cccc(C(F)(F)F)c2)c(C)c1    39.8 µM (inconclusive)
CN(C)CCN(C)CCc1ccc(Cl)c(Cl)c1    39.8 µM (inconclusive)

# ---- query molecule ----
Problem: What measured AC50 goes with "COC(=O)[C@@]1(Cc2ccc(OC)cc2)[C@@H]2[C@@H](CC(=O)[C@H]2CC(=O)C(=O)N(C)C)CN1C(=O)c1ccccc1" ?
Solution: 2 µM (inconclusive)

---

- Subject of test: FAD-linked sulfhydryl oxidase ALR (Homo sapiens, UniProt P55789)
- Sequence (P55789 whole entry): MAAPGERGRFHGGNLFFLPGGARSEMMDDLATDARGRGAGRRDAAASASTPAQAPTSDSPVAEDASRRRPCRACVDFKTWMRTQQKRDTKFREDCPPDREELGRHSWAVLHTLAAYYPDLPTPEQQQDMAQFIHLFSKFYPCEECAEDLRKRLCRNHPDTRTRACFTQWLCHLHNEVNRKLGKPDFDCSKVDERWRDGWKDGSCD
- Test method notes: ALR-catalysed DTT oxidation blockers – biochemical, H2O2 detection, luminescence, cherry-pick, dose response (AID 493248)
Activity calls are given as the source filed them.
Can you answer with just one of these options? 1 (active), 0 (inactive)

Problem: # lookup: test call for COc1ccc(N2CCN(C(CNC(=O)C(C)C)c3ccc4c(c3)OCO4)CC2)cc1 (configuration not stated)
Solution: 1

Problem: Can you handle "CCN(CC)c1ccc(NC(=O)CCNS(=O)(=O)c2ccc3c(c2)CCC(=O)N3)c(C)c1" next?
Solution: 1

Problem: Can you handle "FC(F)(F)c1ccc(-c2n[nH]c(S)n2)cc1" next?
Solution: 1

Problem: Can you handle "Nc1ccccc1C#Cc1ccc2[nH]ccc2c1" next?
Solution: 1

Problem: Can you handle "CC(/C=N/n1c(S)nnc1-c1ccccn1)=C\c1ccccc1" next?
Solution: 1

Problem: Can you handle "Cc1ccc2nc(C)cc(N/N=C/c3cccnc3)c2c1" next?
Solution: 1

Problem: Can you handle "CC(=O)c1ccc(S(=O)(=O)Nc2cccc(S(=O)(=O)NC3=NCCC3)c2)cc1" next?
Solution: 0

Problem: Can you handle CC(=O)Nc1ccc(NC(=O)CC2Nc3cccc4cccc(c34)NC2=O)cc1 (configuration not stated) next?
Solution: 1

---

Active and inactive are the calls of the source.
For Estrogen receptor beta (Homo sapiens, UniProt Q92731), measured IC50 is reported for the entries below.

Worked examples follow.
COc1cc(C(Nc2ccccn2)c2ccc3ccc(C)nc3c2O)cc(OC)c1O (centres undefined)    3.13 µM (active)
COC(=O)c1cnn2c(C(F)(F)F)cc(-c3ccco3)nc12    25.9 µM (active)
Cc1nn(-c2ccccc2)c(Cl)c1/C=N/Nc1ccc(S(=O)(=O)Nc2ccccc2C(=O)O)cc1[N+](=O)[O-]    7.26 µM (active)

# ---- query compound ----
Problem: What measured IC50 goes with "COc1ccc(OC)c(/C=N/c2oc(-c3ccco3)c(-c3ccco3)c2C#N)c1" ?
Solution: 6.47 µM (active)

---

- Subject of test: Cytochrome P450 2C19 (Homo sapiens, UniProt P33261)
- Sequence (P33261 whole entry): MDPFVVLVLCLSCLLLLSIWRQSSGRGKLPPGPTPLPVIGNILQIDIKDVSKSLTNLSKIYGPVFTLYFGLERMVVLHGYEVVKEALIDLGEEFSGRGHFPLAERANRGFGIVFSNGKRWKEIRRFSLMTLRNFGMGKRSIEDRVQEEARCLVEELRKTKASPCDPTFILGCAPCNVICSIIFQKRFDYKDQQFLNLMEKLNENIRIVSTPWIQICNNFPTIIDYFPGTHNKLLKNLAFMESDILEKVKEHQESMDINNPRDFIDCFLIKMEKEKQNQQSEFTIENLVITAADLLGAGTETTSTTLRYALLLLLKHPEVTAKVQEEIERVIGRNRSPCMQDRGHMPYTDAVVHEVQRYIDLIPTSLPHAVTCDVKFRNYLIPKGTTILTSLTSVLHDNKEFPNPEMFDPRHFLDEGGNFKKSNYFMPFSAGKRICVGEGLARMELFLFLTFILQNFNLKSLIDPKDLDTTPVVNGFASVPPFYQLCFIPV
- Test method notes: Cytochrome panel assay with activity outcomes. Panel member name: p450-cyp2c19 Compounds with AC50 equal or less than 10 uM are considered active
- Type: functional
- Settings: read-out: AC50
Observable: AC50

Worked examples follow.
COC(=O)[C@@]1(Cc2ccc(OC)cc2)[C@@H]2[C@@H](CC(=O)[C@H]2CC(=O)C(=O)N2CCCC2)CN1C(=O)c1ccccc1    25.1 µM (inconclusive)
O=C(O)c1sc2cc(C(F)(F)F)cnc2c1-c1ccccc1    39.8 µM (inconclusive)
Cc1ccc(S(=O)(=O)N2CCN(C(=O)CN3CCN(C)CC3)C2)cc1    28.2 µM (inconclusive)
O=C(Cn1ccc2ccccc2c1=O)N1CCN(c2cccc(Cl)c2)CC1    7.08 µM (inconclusive)

# ---- query compound ----
Problem: What measured AC50 goes with "O=C(CN1CCCCC1)Nc1cccc([N+](=O)[O-])c1" ?
Solution: 14.1 µM (inconclusive)

---

- Subject of test: Nucleotide-binding oligomerization domain-containing protein 1 (Homo sapiens)
- Sequence (Q9Y239 whole entry, the tested form may be a part): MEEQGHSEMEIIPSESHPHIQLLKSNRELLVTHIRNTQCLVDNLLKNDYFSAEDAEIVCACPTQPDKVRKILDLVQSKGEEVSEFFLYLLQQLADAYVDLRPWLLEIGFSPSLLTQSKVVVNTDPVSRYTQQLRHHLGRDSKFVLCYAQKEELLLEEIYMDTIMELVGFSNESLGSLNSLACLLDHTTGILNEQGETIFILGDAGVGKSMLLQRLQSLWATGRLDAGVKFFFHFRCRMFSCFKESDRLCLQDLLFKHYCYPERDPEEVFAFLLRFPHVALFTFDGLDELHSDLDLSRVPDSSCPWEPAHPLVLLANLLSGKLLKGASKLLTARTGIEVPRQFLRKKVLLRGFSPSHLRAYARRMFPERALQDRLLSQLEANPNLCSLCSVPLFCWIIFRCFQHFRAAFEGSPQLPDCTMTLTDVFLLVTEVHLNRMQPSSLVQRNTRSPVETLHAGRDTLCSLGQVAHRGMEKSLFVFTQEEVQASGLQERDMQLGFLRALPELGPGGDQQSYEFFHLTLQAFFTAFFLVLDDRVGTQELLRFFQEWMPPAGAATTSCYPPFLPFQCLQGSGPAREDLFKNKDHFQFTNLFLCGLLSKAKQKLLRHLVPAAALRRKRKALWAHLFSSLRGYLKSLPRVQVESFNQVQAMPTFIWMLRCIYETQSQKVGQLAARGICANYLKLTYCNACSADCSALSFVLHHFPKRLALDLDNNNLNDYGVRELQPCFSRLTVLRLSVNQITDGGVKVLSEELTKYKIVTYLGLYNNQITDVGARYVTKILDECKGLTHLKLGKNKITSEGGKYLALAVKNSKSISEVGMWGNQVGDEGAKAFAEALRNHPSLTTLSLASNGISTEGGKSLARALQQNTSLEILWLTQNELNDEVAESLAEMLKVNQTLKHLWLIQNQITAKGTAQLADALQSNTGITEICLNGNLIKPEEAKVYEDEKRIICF
- Test method notes: blockers of NOD1 pathway activity – revised, SAR follow-up (AID 2333)
- Type: functional
Activity calls are given as the source filed them.
Can you answer with just one of these options? active, inactive

Answered cases to consult:
COc1cc(C(=O)Nc2scc(-c3ccc(Br)cc3)c2C(=O)O)cc(OC)c1OC    active
O=C(Nc1ccc(S(=O)(=O)N2CCCCC2)cc1)c1ccc(CN2CCc3ccccc3C2)cc1    active

Problem: # lookup: test call for Cn1nc(-c2ccc(Cl)cc2)cc1C(=O)NC1CCCc2c1cnn2-c1ccccc1F (stereo not given)
Solution: active

Problem: Can you handle "O=C(CCc1ccccc1)Nc1sc2c(c1C(=O)O)CCCC2" next?
Solution: inactive

Problem: Can you handle "COc1ccc(NC(=O)c2ccc(CN3CCCCC3)cc2)cc1" next?
Solution: inactive

---

- Subject of test: Leucine aminopeptidase (Plasmodium falciparum 3D7)
- Sequence (Q8IL11 whole entry): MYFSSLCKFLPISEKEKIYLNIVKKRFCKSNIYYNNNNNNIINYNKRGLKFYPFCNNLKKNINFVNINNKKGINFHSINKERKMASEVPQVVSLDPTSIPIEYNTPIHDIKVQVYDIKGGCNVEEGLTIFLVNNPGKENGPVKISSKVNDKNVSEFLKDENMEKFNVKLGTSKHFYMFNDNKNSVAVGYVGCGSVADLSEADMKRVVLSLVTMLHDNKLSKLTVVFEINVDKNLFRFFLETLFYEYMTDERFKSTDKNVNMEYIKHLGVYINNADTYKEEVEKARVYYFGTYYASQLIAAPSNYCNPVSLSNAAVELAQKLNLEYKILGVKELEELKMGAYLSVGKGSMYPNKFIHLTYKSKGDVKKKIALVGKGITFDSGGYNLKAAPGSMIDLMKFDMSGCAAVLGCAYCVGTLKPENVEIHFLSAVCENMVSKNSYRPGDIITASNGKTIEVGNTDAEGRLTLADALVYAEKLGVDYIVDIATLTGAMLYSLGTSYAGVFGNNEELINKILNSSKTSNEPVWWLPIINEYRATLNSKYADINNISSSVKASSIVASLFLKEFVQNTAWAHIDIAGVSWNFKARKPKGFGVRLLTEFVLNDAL
- Test method notes: P. falciparum M17LAP inhibitors, primary screen, biochemical, fluorogenic H-Leu-NHMec substrate, 1536-well (AID 1619)
- Format: functional
Calls of active or inactive are those of the source.
Entries and their IC50

Worked examples follow.
COc1cc(NC(=O)CSc2nnc3c(C)cc4cc(C)cc(C)c4n23)c(C(=O)O)cc1OC    6 µM (active)
O=C(NN1C(=O)CSC1=S)C(=O)NN1C(=O)CSC1=S    20.5 µM (active)
COc1ccc(OCCCn2cccc2/C=C2/C(=N)N3OC(C)=CC3=NC2=O)cc1    10.9 µM (active)
Sc1nnc(-c2ccco2)[nH]1    11 µM (active)
Cc1cc(/C=C(/C#N)c2nc3ccccc3[nH]2)c(C)n1-c1cc(C(=O)O)cc(C(=O)O)c1    42.6 µM (active)
COCCNC(=O)/C(C#N)=C/c1ccc(N2CCOCC2)o1    113 µM (active)

Problem: What measured IC50 goes with "Cc1cc(C)cc(NC(=O)C2CCN(c3nc(C)cc(C)n3)CC2)c1" ?
Solution: 105 µM (active)

Problem: Can you handle O=C(O)C1CC=CCC1C(=O)Nc1cc(Cl)ccc1Cl (stereo unspecified) next?
Solution: 6.22 µM (active)

Problem: Can you handle CC(C)(C)OC(=O)[C@H]1[C@H](c2ccc([N+](=O)[O-])cc2)C2(C(=O)c3ccccc3C2=O)C2c3ccccc3C=NN21 (stereo partly specified) next?
Solution: 2.23 µM (active)

Problem: Can you handle "Oc1cc(-c2ccccc2)nc2nc(SCc3ccccc3)nn12" next?
Solution: 5.04 µM (active)

Problem: Can you handle "CCOc1ccc(NC(=O)Nc2cccs2)cc1" next?
Solution: 3.22 µM (active)
